# measurement.protocol: MRT (0 to t) in Sprague-Dawley rat at 20 mg/kg, po measured upto 72 hrs by (LC-MS)/MS analysis
# Format: ADME, organism-based
# condition.notes: in vivo
experimental.endpoint: MRT last at 72 h (h)
A number alone suffices; assume h.

[in] Please report the recorded MRT last at 72 h for `COc1cc2ncnc(Nc3cccc(Cl)c3F)c2cc1OCCCCNCc1c(OC)cc(OCc2cccc(-c3ccccc3)c2C)cc1OC` .
[out] 17.5

* * *

# measurement.protocol: cells
# condition.notes: Homo sapiens, U87MG Human EGFR vIII, 72 h
# Description: Antiproliferative activity against human U87vIII cells expressing EGFRvIII incubated for 72 hrs by MTT assay
experimental.endpoint: pIC50
// pIC50 here means minus log10 of the molar concentration (mol/L)

Answered cases to consult:
> print(dat)
                           structure.string  reported.measurement
1  COc1cc2ncnc(Nc3ccc(F)c(Cl)c3)c2cc1OCCCCNCc1c(OC)cc(OCc2cccc(-c3ccccc3)c2C)cc1OC                  6.44
2  COc1cc2ncnc(Nc3ccc(F)c(Cl)c3)c2cc1OCCCNCc1c(OC)cc(OCc2cccc(-c3ccccc3)c2C)cc1OC                  5.86
3  COc1cc2ncnc(Nc3ccc(F)c(Cl)c3)c2cc1OCCCCNCc1ccc(-c2cccc(-c3ccccc3)c2C)nc1OC                  5.58
4  COc1cc2ncnc(Nc3ccc(F)c(Cl)c3)c2cc1OCCNCc1ccc(-c2cccc(-c3ccccc3)c2C)nc1OC                  5.94

[in] Please report the recorded pIC50 for `COc1cc(OCc2cccc(-c3ccccc3)c2C)ccc1CNCCCOc1cc2c(Nc3ccc(F)c(Cl)c3)ncnc2cc1OC` .
[out] 6.02

[in] Can you handle `COc1cc2ncnc(Nc3ccc(F)c(Cl)c3)c2cc1OCCCCCCNCc1c(OC)cc(OCc2cccc(-c3ccccc3)c2C)cc1OC` next?
[out] 6.27
